- assay protocol: Partition coefficient (logP) (ether)
- protocol conditions: octanol/water
measured parameter: logP

• CCCCN [BUTYLAMINE] = 0.11
• CCCCCCCO [1-HEPTANOL] = 2.4
• CCC(=O)O [PROPIONIC ACID] = 0.27
• CCCCC(=O)O [VALERIC ACID] = 1
• Nc1ccccc1[N+](=O)[O-] [2-NITROANILINE] = 1.95
• CC(C)=O [ACETONE] = -0.21
• Oc1ccccc1 [PHENOL] = 1.64
• CCCC(C)C1(CC)C(=O)NC(=O)NC1=O (stereo not given) [PENTOBARBITAL] = 1.28
• O=[N+]([O-])c1ccccc1O [NITROPHENOLATE] = 2.18
• Oc1ccc(O)cc1 [HYDROQUINONE] = 0.38
• O=C(O)c1ccccc1O [SALICYLIC ACID] = 2.37
• CCC(N)CC = -0.07
• CCN [ETHYLAMINE] = -1.18
• O=C(O)c1ccc(O)cc1 [PARABEN] = 1.42
• Nc1ccccc1 [ANILINE] = 0.85
• O=[N+]([O-])c1ccc(O)cc1 [P-NITROPHENOL] = 2.01
• CO [METHYL ALCOHOL] = -1.15
• COc1ccc(C=O)cc1O [ISOVANILLIN] = 0.82
• O=C(O)c1cccc([N+](=O)[O-])c1 = 1.97
• O=C(O)C(Cl)(Cl)Cl [TRICHLOROACETIC ACID] = 1.21
• CCCCCC(=O)O [HEXANOATE] = 1.95
• COc1ccc(O)cc1 [MEQUINOL] = 1.47
• COC(C)=O [ACETIC ACID METHYL ESTER] = 0.43
• CC(C)(C)N [TERT-BUTYLAMINE] = -0.26
• O=[N+]([O-])c1cccc(O)c1 [3-NITRO-PHENOL] = 2.18
• CCCN [PROPYLAMINE] = -0.54
• COc1cccc(C=O)c1O = 1.35
• Nc1ccccc1C(=O)O [ANTHRANILIC ACID] = 1.43
• COc1cc(C=O)ccc1O [VANILLIN] = 0.96
• COc1ccccc1O [GUAIACOL] = 1.44

###

- assay protocol: Partition coefficient (logP) (hexane)
- protocol conditions: octanol/water
logP of -0.6 or higher: Fulfilled. Under -0.6: Not fulfilled.

- O=C(O)CCl: Not fulfilled
- O=C(O)c1ccc(O)cc1: Not fulfilled
- CCC(=O)O: Not fulfilled
- O=C(O)c1cccc([N+](=O)[O-])c1: Not fulfilled
- COc1cccc(C=O)c1O: Fulfilled
- Oc1ccc(O)cc1 [HYDROQUINONE]: Fulfilled
- COc1ccc(C=O)cc1O: Not fulfilled
- O=[N+]([O-])c1ccc(O)cc1: Not fulfilled
- CCC1(c2ccccc2)C(=O)NC(=O)NC1=O: Not fulfilled
- Nc1cccc([N+](=O)[O-])c1: Not fulfilled
- CCCC(C)C1(CC)C(=O)NC(=O)NC1=O (configuration not stated): Not fulfilled
- Nc1ccccc1C(=O)O: Not fulfilled
- CCCCC(=O)O: Not fulfilled
- O=C(O)C(Cl)(Cl)Cl: Not fulfilled
- CCOC(C)=O [ETHYL ACETATE]: Fulfilled
- CCC(N)CC: Fulfilled
- CCCCCC(=O)O [HEXANOATE]: Fulfilled
- CO: Not fulfilled
- CC(C)(C)N: Fulfilled
- O=Cc1ccc(O)cc1 [4-HYDROXYBENZALDEHYDE]: Not fulfilled
- Oc1ccccc1: Not fulfilled
- O=[N+]([O-])c1cccc(O)c1: Not fulfilled
- CCCCCO: Fulfilled
- COc1cc(C=O)ccc1O: Not fulfilled
- CCN: Not fulfilled
- COc1ccc(O)cc1: Not fulfilled
- Oc1ccc2ccccc2c1: Fulfilled
- COc1ccccc1O: Fulfilled
- CCCCN: Not fulfilled
- Nc1ccccc1: Fulfilled
- O=[N+]([O-])c1ccccc1O [NITROPHENOLATE]: Fulfilled
- Nc1ccccc1[N+](=O)[O-]: Fulfilled
- O=C(O)c1ccccc1O: Fulfilled
- COC(C)=O: Fulfilled
- CC(C)=O: Not fulfilled
- CCCCCCCO: Fulfilled
